- Tested on: SK-OV-3 ovarian
- TEST METHOD NOTES: NCI tumour cell line growth inhibition, 48 h; in the data active means GI50 below about 0.43 µM; inactive means the rest
Please answer using one outcome listed in t = active, f = inactive

Prompt: Hi, sorry to bother you, what did the test record for C=CN1C(=O)OC(c2ccccc2)C1c1ccccc1 (stereo not given) ?
Completion: f

Prompt: Hi, sorry to bother you, what did the test record for `CCOC(=O)c1sc(-c2ccc(OS(=O)(=O)c3cccs3)c(C=O)c2)nc1C` ?
Completion: f

Prompt: Hi, sorry to bother you, what did the test record for NC(=O)CCC(NC(=O)OCc1ccccc1)C(=O)OCC(=O)c1ccccc1 (stereo not given) ?
Completion: f

Prompt: Hi, sorry to bother you, what did the test record for `Cn1c2ccccc2c(=Nc2ccccc2)c2c3ccccc3[nH]c21` ?
Completion: f

Prompt: Hi, sorry to bother you, what did the test record for `CC1(C)CCC[C@]23C(=O)O[C@](O)(C(=O)C4=C[C@@](C)(/C=C/CCCc5ccc6ccc7cccc8ccc5c6c78)CC[C@@]42O)[C@@H]13` ?
Completion: t
